So I've got a bunch of molecules here, and I need their φT, triplet quantum yield values.
- PROTOCOL NOTES: Triplet state properties by laser flash photolysis
- Format: physicochemical
- CONDITION: phosphate-buffered solution; ε920 estimated by total depletion method
Give your answer as a number; write no unit.

Please give the measured φT, triplet quantum yield for this molecule: C[n+]1ccc(-c2c3nc(c(-c4cc[n+](C)cc4)c4ccc([nH]4)c(-c4cc[n+](C)cc4)c4nc(c(-c5cc[n+](C)cc5)c5ccc2[nH]5)C=C4)C=C3)cc1.Cc1ccc(S(=O)(=O)[O-])cc1.Cc1ccc(S(=O)(=O)[O-])cc1.Cc1ccc(S(=O)(=O)[O-])cc1.Cc1ccc(S(=O)(=O)[O-])cc1 [Porphyrin T4MPyP, reference compound]
0.73

Please give the measured φT, triplet quantum yield for this molecule: CCCCCCCCCCCCCCCCCC[n+]1ccc(-c2c3nc(c(-c4cc[n+](C)cc4)c4ccc([nH]4)c(-c4cc[n+](C)cc4)c4nc(c(-c5cc[n+](C)cc5)c5ccc2[nH]5)C=C4)C=C3)cc1.Cl.Cl.[Cl-].[Cl-].[Cl-].[Cl-]
0.17

Please give the measured φT, triplet quantum yield for this molecule: CCCCCCCCCC[n+]1ccc(-c2c3nc(c(-c4cc[n+](C)cc4)c4ccc([nH]4)c(-c4cc[n+](C)cc4)c4nc(c(-c5cc[n+](C)cc5)c5ccc2[nH]5)C=C4)C=C3)cc1.Cl.Cl.[Cl-].[Cl-].[Cl-].[Cl-]
0.49

Please give the measured φT, triplet quantum yield for this molecule: CCCCCCCCCCCCCC[n+]1ccc(-c2c3nc(c(-c4cc[n+](C)cc4)c4ccc([nH]4)c(-c4cc[n+](C)cc4)c4nc(c(-c5cc[n+](C)cc5)c5ccc2[nH]5)C=C4)C=C3)cc1.Cl.Cl.[Cl-].[Cl-].[Cl-].[Cl-]
0.48

* * *

- PROTOCOL NOTES: Fluorescence decay times (phase-shift method)
- Format: physicochemical
- CONDITION: ca. 5 μM, air-equilibrated buffer pH 7.4, λexc = 420 nm, λem > 600 nm
Flag rule - τ2, fluorescence decay time of slow component less than 6 ns flags condition met; the remaining entries get condition not met.

Confirm or reject: τ2, fluorescence decay time of slow component of CCCCCCCCCC[n+]1ccc(-c2c3nc(c(-c4cc[n+](C)cc4)c4ccc([nH]4)c(-c4cc[n+](C)cc4)c4nc(c(-c5cc[n+](C)cc5)c5ccc2[nH]5)C=C4)C=C3)cc1.Cl.Cl.[Cl-].[Cl-].[Cl-].[Cl-] lies strictly below 6 ns
condition met

Confirm or reject: τ2, fluorescence decay time of slow component of CCCCCCCCCCCCCC[n+]1ccc(-c2c3nc(c(-c4cc[n+](C)cc4)c4ccc([nH]4)c(-c4cc[n+](C)cc4)c4nc(c(-c5cc[n+](C)cc5)c5ccc2[nH]5)C=C4)C=C3)cc1.Cl.Cl.[Cl-].[Cl-].[Cl-].[Cl-] lies strictly below 6 ns
condition not met

Confirm or reject: τ2, fluorescence decay time of slow component of C[n+]1ccc(-c2c3nc(c(-c4cc[n+](C)cc4)c4ccc([nH]4)c(-c4cc[n+](C)cc4)c4nc(c(-c5cc[n+](C)cc5)c5ccc2[nH]5)C=C4)C=C3)cc1.Cc1ccc(S(=O)(=O)[O-])cc1.Cc1ccc(S(=O)(=O)[O-])cc1.Cc1ccc(S(=O)(=O)[O-])cc1.Cc1ccc(S(=O)(=O)[O-])cc1 [Porphyrin T4MPyP, reference compound] lies strictly below 6 ns
condition met

Confirm or reject: τ2, fluorescence decay time of slow component of CCCCCCCCCCCCCCCCCC[n+]1ccc(-c2c3nc(c(-c4cc[n+](C)cc4)c4ccc([nH]4)c(-c4cc[n+](C)cc4)c4nc(c(-c5cc[n+](C)cc5)c5ccc2[nH]5)C=C4)C=C3)cc1.Cl.Cl.[Cl-].[Cl-].[Cl-].[Cl-] lies strictly below 6 ns
condition not met
